Reference source: patent US12157727B2

Target: IDO1 (Homo sapiens)
Construct: Human whole blood was drawn in sodium heparin coated tubes from healthy internal donors
Assay: IDO1 Human Whole Blood Assay
Conditions: LPS and IFNγ 100 ng/mL, overnight (18 h), kynurenine by LC/MS/MS

molecule: O=C([C@@H]1CCCCO1)N1CCCc2nc(C3(c4nc5ncc(C(F)(F)F)cc5[nH]4)CCC3)ccc21 [Example 15]
IC50: 26.1 nM
--
molecule: FC(F)(F)c1nccc(N2CCCc3nc(C4(c5nc6cc(Cl)ccc6[nH]5)CCC4)ccc32)n1 [Example 33]
IC50: 83.3 nM
--
molecule: O=C(OC1CC1)N1CCCc2nc(C3(c4nc5ncc(C(F)(F)F)cc5[nH]4)CCC3)ccc21 [Example 23]
IC50: 64.2 nM
--
molecule: O=C(OC1CC1)N1CCCc2nc(C3(c4nc5ncc(Cl)cc5[nH]4)CCC3)ccc21 [Example 22]
IC50: 60.5 nM
--
molecule: O=C([C@H]1CCCCO1)N1CCCc2nc(C3(c4nc5ncc(C(F)(F)F)cc5[nH]4)CCC3)ccc21 [Example 16]
IC50: 14.1 nM
--
molecule: O=C(C1CC1)N1CCCc2nc(C3(c4nc5cc(C(F)(F)F)cnc5[nH]4)CCC3)ccc21 [Example 13]
IC50: 56.3 nM
--
molecule: N#Cc1ccc2nc(C3(c4ccc5c(n4)CCCN5C(=O)OC4CC4)CCC3)[nH]c2c1 [Example 20]
IC50: 35 nM
--
molecule: Cc1nccc(N2CCCc3nc(C4(c5nc6cc(Cl)ccc6[nH]5)CCC4)ccc32)n1 [Example 34]
IC50: 140 nM

====

Molecular target: IDO1 (Homo sapiens)
Construct: Human whole blood was drawn in sodium heparin coated tubes from healthy internal donors
Assay: IDO1 Human Whole Blood Assay
Settings: LPS and IFNγ 100 ng/mL, overnight (18 h), kynurenine by LC/MS/MS
pIC50: −log10 of the molar value.
measurement.name: pIC50

molecule: O=C([C@H]1CCCO1)N1CCCc2cc(C3(c4nc5ncc(C(F)(F)F)cc5[nH]4)CCC3)ccc21
measurement.target: IDO1 (Homo sapiens)
measurement.name: pIC50
quantitative.readout: 7.51
--
molecule: Cc1nccc(N2CCCc3nc(C4(c5nc6cc(C(F)(F)F)cnc6[nH]5)CCC4)ccc32)n1
measurement.target: IDO1 (Homo sapiens)
measurement.name: pIC50
quantitative.readout: 6.45
--
molecule: CC(c1ccc2c(n1)CCCN2C(=O)OC1CC1)c1nc2ccc(Cl)cc2[nH]1 (centres unmarked)
measurement.target: IDO1 (Homo sapiens)
measurement.name: pIC50
quantitative.readout: 6.93
--
molecule: O=C(C1CC1)N1CCCc2cc(C3(c4nc5ccc(Cl)cc5[nH]4)CCC3)ccc21
measurement.target: IDO1 (Homo sapiens)
measurement.name: pIC50
quantitative.readout: 6.88
--
molecule: N#Cc1cnc2nc(C3(c4ccc5c(n4)CCCN5C(=O)OC4CC4)CCC3)[nH]c2c1
measurement.target: IDO1 (Homo sapiens)
measurement.name: pIC50
quantitative.readout: 6.92
--
molecule: C[C@@H](c1ccc2c(n1)CCCN2C(=O)OC1CC1)c1nc2ccc(Cl)cc2[nH]1
measurement.target: IDO1 (Homo sapiens)
measurement.name: pIC50
quantitative.readout: 7.26
--
molecule: COC(=O)N1CCCc2nc(C3(c4nc5cc(C(F)(F)F)cnc5[nH]4)CCC3)ccc21
measurement.target: IDO1 (Homo sapiens)
measurement.name: pIC50
quantitative.readout: 6.31
--
molecule: O=C(c1ccccc1Cl)N1CCCc2nc(C3(c4nc5ncc(C(F)(F)F)cc5[nH]4)CCC3)ccc21
measurement.target: IDO1 (Homo sapiens)
measurement.name: pIC50
quantitative.readout: 7.32

====

Target: IDO1 (Homo sapiens, UniProt P14902)
Construct: Human whole blood was drawn in sodium heparin coated tubes from healthy internal donors
Sequence (P14902 whole entry): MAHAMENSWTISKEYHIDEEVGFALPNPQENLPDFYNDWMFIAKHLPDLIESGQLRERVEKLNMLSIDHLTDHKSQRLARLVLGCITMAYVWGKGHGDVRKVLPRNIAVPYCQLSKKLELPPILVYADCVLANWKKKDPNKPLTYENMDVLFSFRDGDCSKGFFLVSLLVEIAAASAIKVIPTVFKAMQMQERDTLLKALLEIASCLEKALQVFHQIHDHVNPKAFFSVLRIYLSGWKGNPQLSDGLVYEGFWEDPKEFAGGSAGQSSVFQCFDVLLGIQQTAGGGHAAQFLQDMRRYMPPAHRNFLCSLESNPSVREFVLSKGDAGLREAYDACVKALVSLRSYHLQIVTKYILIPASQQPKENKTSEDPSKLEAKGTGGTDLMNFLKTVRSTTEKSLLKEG
Assay: IDO1 Human Whole Blood Assay
Conditions: LPS and IFNγ 100 ng/mL, overnight (18 h), kynurenine by LC/MS/MS
Method: Compounds to be tested were serially diluted in ten 3-fold steps in DMSO starting from 10 mM. […] On day 2 isotope labeled standard of kynurenine and tryptophan was made in water at 10×concentration and 30 μL was added to the blood at 3 μM final concentration. […] 20 μL of supernatant was carefully transferred to a 384 well plate contain 40 μL of 0.1% formic acid in water and analyzed by LC/MS/MS. […]
pIC50: −log10 of the molar value.
measurement.name: pIC50

item.smiles: O=C(C1CC1)N1CCCc2cc(C3(c4nc5ncc(C(F)(F)F)cc5[nH]4)CCC3)ccc21
quantitative.readout: 6.73
//
item.smiles: CCOC(=O)N1CCCc2nc(C3(c4nc5cc(C(F)(F)F)cnc5[nH]4)CCC3)ccc21
quantitative.readout: 6.56
//
item.smiles: N#Cc1ccc2nc(C3(c4ccc5c(c4)CCCN5C(=O)C4CC4)CCC3)[nH]c2c1
quantitative.readout: 7.57
//
item.smiles: N#Cc1ccc2nc(C3(c4ccc5c(n4)CCCN5c4ccnc(C(F)(F)F)n4)CC4(CC4)C3)[nH]c2c1
quantitative.readout: 7.15
//
item.smiles: O=C(OC1CC1)N1CCCc2nc(C3(c4nc5ccc(Cl)cc5[nH]4)CCC3)ccc21
quantitative.readout: 7.36
//
item.smiles: FC(F)(F)c1nccc(N2CCCc3nc(C4(c5nc6cc(Cl)cnc6[nH]5)CCC4)ccc32)n1
quantitative.readout: 7.27
//
item.smiles: COC(=O)N1CCCc2cc(C3(c4nc5ncc(C(F)(F)F)cc5[nH]4)CCC3)ccc21
quantitative.readout: 6.64
//
item.smiles: C[C@H](c1ccc2c(n1)CCCN2C(=O)OC1CC1)c1nc2ccc(Cl)cc2[nH]1
quantitative.readout: 7.25
